Source listed as patent EP4692094A1.

- assay summary: In-vivo pharmacokinetic study in beagle dogs
- Parameters: species or system male beagle dogs
- run parameters: male, dog, plasma, po, intragastric administration, 1 mg/kg
- Description: 1.1 Instrument: high-performance liquid chromatograph: SHIMADZU LC-30AD; mass spectrum: AB SCIEX mass spectrometer Triple Quad 5500; all measured data were calculated and processed using Microsoft Excel, and relevant pharmacokinetic parameters were calculated using WinNonlin software. […] All measured data were collected and processed by the relevant software, and pharmacokinetic parameters were calculated using Winnonlin software. […]
outcome measure: Cmax (ng/mL)
# output: bare number, implied unit ng/mL

Notebook: COc1cc2c(cc1S(=O)(=O)Nc1noc3cc(Cn4cccn4)nc(OC)c13)OCC2 , Cmax read as 8380

Notebook: COc1ccc2c(c1S(=O)(=O)Nc1noc3cc(Cn4cccn4)nc(OC)c13)OCC2 , Cmax read as 9230

Notebook: COc1ccc2ccoc2c1S(=O)(=O)Nc1noc2cc(Cn3cccn3)nc(OC)c12 , Cmax read as 6250

----------
- target or test system: CYP1A2 (Homo sapiens, UniProt P05177)
- Construct: from tissue; host or cells: human liver microsomes
- Sequence (P05177 whole entry): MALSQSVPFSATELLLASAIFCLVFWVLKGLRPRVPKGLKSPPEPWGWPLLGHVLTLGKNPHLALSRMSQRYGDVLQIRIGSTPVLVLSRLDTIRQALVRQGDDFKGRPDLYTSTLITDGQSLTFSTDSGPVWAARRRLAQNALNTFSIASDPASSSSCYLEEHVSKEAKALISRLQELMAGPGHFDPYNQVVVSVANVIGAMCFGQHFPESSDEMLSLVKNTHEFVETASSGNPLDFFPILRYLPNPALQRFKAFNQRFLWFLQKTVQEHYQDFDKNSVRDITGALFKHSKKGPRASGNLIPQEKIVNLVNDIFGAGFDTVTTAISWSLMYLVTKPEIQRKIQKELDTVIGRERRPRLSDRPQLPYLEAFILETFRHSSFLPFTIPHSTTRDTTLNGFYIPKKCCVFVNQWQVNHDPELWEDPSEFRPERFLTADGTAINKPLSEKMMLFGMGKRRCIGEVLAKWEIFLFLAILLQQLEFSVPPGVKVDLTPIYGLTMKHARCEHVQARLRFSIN
- assay summary: Inhibitory effect on P450 enzymes in vitro (human liver microsomes), CYP1A2
- Type: in vitro ADME
- run parameters: probe phenacetin, final concentration 10 µM, substrate phenacetin, read-out: % inhibition rate CYP1A2 (phenacetin)
Let's look at some compounds and their measured inhibition at 20 min, 10 µM.
# output: bare number, implied unit %

- COc1cc2c(cc1S(=O)(=O)Nc1noc3cc(Cn4cccn4)nc(OC)c13)OCC2: 1.93
- COc1ccc2ccoc2c1S(=O)(=O)Nc1noc2cc(Cn3cccn3)nc(OC)c12: -1.78

Notebook: COc1cc2c(cc1S(=O)(=O)Nc1noc3cc(Cn4cccn4)nc(OC)c13)CCCC2 , inhibition at 20 min, 10 µM read as 6.02

----------
Let's look at some compounds and their measured AUC(0-inf).
- assay summary: In-vivo pharmacokinetic study in rats
- Design: species or system SD female rats
- run parameters: female, SD, rat, plasma, po, intragastric administration, 5 mg/kg

The following compounds have reported results that may help.
* COc1nc(Cn2cccn2)cc2onc(NS(=O)(=O)c3cccc4ccoc34)c12 [Example 5] | 19.7 µg·h/mL
* COc1cc2c(c(OC)c1S(=O)(=O)Nc1noc3cc(Cn4cccn4)nc(OC)c13)CCC2 [Example 62] | 450 µg·h/mL

Now consider the entry below.
Notebook: COc1nc(Cn2cccn2)cc2onc(NS(=O)(=O)c3cccc4c3ccn4C)c12 [Example 6] , AUC(0-inf) read as 1300 µg·h/mL

----------
Let's look at some compounds and their measured inhibition at 10 min, 10 µM.
- target or test system: CYP2C8 (Homo sapiens, UniProt P10632)
- Construct: from tissue; host or cells: human liver microsomes
- Sequence (P10632 whole entry): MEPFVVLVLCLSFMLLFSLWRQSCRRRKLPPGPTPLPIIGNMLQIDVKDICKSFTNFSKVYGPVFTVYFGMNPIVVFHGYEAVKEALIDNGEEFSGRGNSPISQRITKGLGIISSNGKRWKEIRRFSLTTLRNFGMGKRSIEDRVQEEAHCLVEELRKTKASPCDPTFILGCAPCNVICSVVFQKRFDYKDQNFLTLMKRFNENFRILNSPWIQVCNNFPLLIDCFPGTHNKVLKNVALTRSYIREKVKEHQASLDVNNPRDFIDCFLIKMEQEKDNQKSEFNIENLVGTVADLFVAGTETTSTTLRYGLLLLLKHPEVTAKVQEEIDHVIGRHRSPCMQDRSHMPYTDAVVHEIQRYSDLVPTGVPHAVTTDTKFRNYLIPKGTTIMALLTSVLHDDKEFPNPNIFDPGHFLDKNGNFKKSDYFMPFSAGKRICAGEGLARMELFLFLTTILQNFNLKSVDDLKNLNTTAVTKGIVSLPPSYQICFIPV
- assay summary: Inhibitory effect on P450 enzymes in vitro (human liver microsomes), CYP2C8
- Type: in vitro ADME
- run parameters: probe paclitaxel, final concentration 10 µM, substrate paclitaxel, read-out: % inhibition rate CYP2C8 (paclitaxel)
# output: bare number, implied unit %

The following compounds have reported results that may help.
- COc1cc2c(cc1S(=O)(=O)Nc1noc3cc(Cn4cccn4)nc(OC)c13)CCCC2 [Example 2]: 16.4
- COc1ccc2ccoc2c1S(=O)(=O)Nc1noc2cc(Cn3cccn3)nc(OC)c12 [Example 10]: 3.71

Now consider the entry below.
Notebook: COc1cc2c(cc1S(=O)(=O)Nc1noc3cc(Cn4cccn4)nc(OC)c13)OCC2 [Example 59] , inhibition at 10 min, 10 µM read as 2.08
